B1: TPR t1 (parent)
chain: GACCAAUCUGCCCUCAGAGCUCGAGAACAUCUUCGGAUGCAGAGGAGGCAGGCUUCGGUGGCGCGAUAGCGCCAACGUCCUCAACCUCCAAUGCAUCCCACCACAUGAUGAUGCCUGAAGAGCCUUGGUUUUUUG

- Variants of: B1
- Protocol: polymerase ribozyme fitness, log enrichment relative to wild type (log ratio); higher = more active; in vitro selection for triplet polymerase activity
Output 1 (yes) for polymerase ribozyme fitness (log ratio) not less than -1; output 0 (no) otherwise.

[
  {
    "Variant Code": "G71C C79A",
    "Assigned Category": "0 (no)"
  },
  {
    "Variant Code": "C12G G47U",
    "Assigned Category": "0 (no)"
  },
  {
    "Variant Code": "C12A C56A C115U G120A C123A",
    "Assigned Category": "0 (no)"
  },
  {
    "Variant Code": "C15U C20A U81G U112G",
    "Assigned Category": "0 (no)"
  },
  {
    "Variant Code": "C11A C49A U59A A91G",
    "Assigned Category": "0 (no)"
  },
  {
    "Variant Code": "C13G C56G C101U",
    "Assigned Category": "0 (no)"
  },
  {
    "Variant Code": "G36U A41U",
    "Assigned Category": "0 (no)"
  },
  {
    "Variant Code": "A2C G57C G71A U92G G120A",
    "Assigned Category": "0 (no)"
  },
  {
    "Variant Code": "C12A U133A",
    "Assigned Category": "1 (yes)"
  },
  {
    "Variant Code": "G48U G60C C70U U78G",
    "Assigned Category": "0 (no)"
  },
  {
    "Variant Code": "G42A G44C C56G G135U",
    "Assigned Category": "0 (no)"
  },
  {
    "Variant Code": "A41G G69U G93C",
    "Assigned Category": "1 (yes)"
  },
  {
    "Variant Code": "C56U C86G C104U",
    "Assigned Category": "1 (yes)"
  },
  {
    "Variant Code": "C62U C72U U92C U96C",
    "Assigned Category": "0 (no)"
  },
  {
    "Variant Code": "A2G A37C A111G",
    "Assigned Category": "0 (no)"
  },
  {
    "Variant Code": "A24G A46G G57U A100C",
    "Assigned Category": "0 (no)"
  },
  {
    "Variant Code": "A41U C70A C89G C97A A105C G110U",
    "Assigned Category": "0 (no)"
  },
  {
    "Variant Code": "G48U U59A G60U G122A C123A",
    "Assigned Category": "0 (no)"
  },
  {
    "Variant Code": "G63A C79U A83G C123G",
    "Assigned Category": "1 (yes)"
  },
  {
    "Variant Code": "G71A C94U",
    "Assigned Category": "0 (no)"
  },
  {
    "Variant Code": "C56G G61C",
    "Assigned Category": "0 (no)"
  },
  {
    "Variant Code": "G58C C85U C123G U132A",
    "Assigned Category": "1 (yes)"
  },
  {
    "Variant Code": "A26U C53U G71C A118U",
    "Assigned Category": "0 (no)"
  },
  {
    "Variant Code": "A5G G47U A50C C62U A105C",
    "Assigned Category": "0 (no)"
  },
  {
    "Variant Code": "A18U G39U G48U C73U A84C",
    "Assigned Category": "0 (no)"
  },
  {
    "Variant Code": "C22U G71U",
    "Assigned Category": "0 (no)"
  },
  {
    "Variant Code": "G39U C79U",
    "Assigned Category": "1 (yes)"
  },
  {
    "Variant Code": "C13U A24G A50U",
    "Assigned Category": "0 (no)"
  },
  {
    "Variant Code": "C49G C56U",
    "Assigned Category": "1 (yes)"
  },
  {
    "Variant Code": "U32C G61A U67G C82U",
    "Assigned Category": "0 (no)"
  },
  {
    "Variant Code": "C89U U133G",
    "Assigned Category": "1 (yes)"
  },
  {
    "Variant Code": "U54C C73U A83U G113U U134G",
    "Assigned Category": "0 (no)"
  },
  {
    "Variant Code": "C12A C89U C101A A111U",
    "Assigned Category": "0 (no)"
  },
  {
    "Variant Code": "C15G A100U",
    "Assigned Category": "0 (no)"
  },
  {
    "Variant Code": "U32A U33C A121U G135A",
    "Assigned Category": "0 (no)"
  },
  {
    "Variant Code": "C124G U133A",
    "Assigned Category": "1 (yes)"
  },
  {
    "Variant Code": "C3U",
    "Assigned Category": "1 (yes)"
  },
  {
    "Variant Code": "U7A C82A U116C C123A",
    "Assigned Category": "0 (no)"
  },
  {
    "Variant Code": "G63U",
    "Assigned Category": "0 (no)"
  },
  {
    "Variant Code": "C49U C124G",
    "Assigned Category": "1 (yes)"
  },
  {
    "Variant Code": "C73A C104A U116G C124A",
    "Assigned Category": "0 (no)"
  },
  {
    "Variant Code": "A2U U32G G60U G69A U92A C114A U116A C124G",
    "Assigned Category": "0 (no)"
  },
  {
    "Variant Code": "C56G G77C",
    "Assigned Category": "1 (yes)"
  },
  {
    "Variant Code": "C15A C72G",
    "Assigned Category": "0 (no)"
  },
  {
    "Variant Code": "U55A C73A C104A A118G G122U",
    "Assigned Category": "0 (no)"
  },
  {
    "Variant Code": "C12A A26G A121C",
    "Assigned Category": "0 (no)"
  }
]
